Provide the recorded pIC50 for the entries that follow.
target: HLA-B*57:01; assay: IEDB peptide-MHC binding, purified MHC/competitive/radioactivity; bounds were set here for any values at or beyond the usual limits of such assays; conditions: source organism: Bordetella pertussis
Numbers only, as −log10 of the molar value.

TTLGLEQTF = 5.32
AVLVNPHIF = 4.48

Now for another entry.
So what does the record say about pIC50 for "ITVTSRGGF" ?
6.11

----------
target: HLA-B*35:01; test: IEDB peptide-MHC binding, purified MHC/competitive/radioactivity; bounds were set here for any values at or beyond the usual limits of such assays; settings: source organism: Bordetella pertussis
PARAMETER: IC50
Dear colleague, please send the value followed by its unit.

ETFCITTIY = 15.8 µM
QVGSSNSAF = 69.9 µM
GKDLKRPGS = 69.9 µM

Lab note: next sequence to report on.
Which value of IC50 has been reported for "VHVSKEEQY" in the records?
69.9 µM
